MEASUREMENT_PROTOCOL: Metabolic stability in rat liver microsomes assessed as half life
Type: ADME, Microsome
Binary call on half-life with cut-off 100 min: strictly below means Satisfied, and equality or higher means Not satisfied.

| SMILES_REPR | GROUP_LABEL |
| --- | --- |
| O=C(NCCC(c1ccccc1)c1ccccc1)c1ccc(=O)[nH]c1 | Satisfied |
| N#Cc1ccc(CNC(=O)c2ccc(OCC(F)(F)F)nc2)c(Cl)c1 | Not satisfied |
| CCOCCn1cc(C(=O)NCc2ccc(Cl)cc2Cl)ccc1=O | Satisfied |

*Q* Say whether its half-life is strictly beneath 100 min. Entry: CCOCCn1cc(C(=O)NCCC(c2ccccc2)c2ccccc2)ccc1=O
*A* Satisfied

*Q* // query: Nc1ccc(C(=O)NCc2ccc(Cl)cc2Cl)cn1
*A* Satisfied

*Q* // query: O=C(NCc1ccc(Br)cc1OC(F)(F)F)c1ccc(OCC(F)(F)F)nc1
*A* Satisfied

*Q* // query: O=C(NCCC(c1ccccc1)c1ccccc1)c1ccc(OCC(F)(F)F)nc1
*A* Satisfied

*Q* // query: CS(=O)(=O)c1ccc(CNC(=O)c2ccc(OCC(F)(F)F)nc2)c(Cl)c1
*A* Satisfied

*Q* // query: O=C(NCc1ccc(Cl)cc1Cl)c1ccc(OCC(F)(F)F)nc1
*A* Satisfied

*Q* // query: O=C(NCc1ccc(Cl)cc1Cl)c1ccc(=O)[nH]c1
*A* Not satisfied

*Q* // query: CS(=O)(=O)c1ccc(CNC(=O)c2ccc(OCCC(F)(F)F)nc2)cc1
*A* Not satisfied

*Q* // query: O=C(NC1CCOCC1)C1CCN(C(=O)NCc2ccc(Cl)cc2Cl)CC1
*A* Not satisfied

*Q* // query: O=C(NCc1ccccc1OC(F)(F)F)c1ccc(OCC(F)(F)F)nc1
*A* Satisfied
